Assay: Plasma lipid-lowering activity at a dosage of 0.001% in the diet in KKAy mice
Format: functional, Mus musculus
As shown below, each of these molecules has a reported Activity value.
Provide a numeric answer; units are not to be included.

molecule | Activity
Cc1sc(-c2ccccc2)nc1COc1ccc(CCCC2OC(=O)NC2=O)cc1 (centres undefined) | 17
Cc1oc(-c2cc3ccccc3s2)nc1COc1ccc(CCCC2OC(=O)NC2=O)cc1 (centres undefined) | 24
Cc1oc(-c2ccccc2)nc1COc1ccc(CCC2OC(=O)NC2=O)cc1 (centres undefined) | 13
Cc1oc(-c2ccccc2)nc1CCOc1ccc(CCC2OC(=O)NC2=O)cc1 (centres undefined) | 15

*Q* // query Activity value for entry Cc1oc(-c2cc3ccccc3o2)nc1COc1ccc(CCCC2OC(=O)NC2=O)cc1 (centres undefined)
*A* 12

*Q* Subsequent entry: Cc1oc(-c2ccccc2)nc1COc1ccc(CCCC2OC(=O)NC2=O)cn1 (centres undefined)
*A* 69

---

Experiment: Plasma glucose-lowering activity at a dosage of 0.005% in the diet in KKA(y) mice.
Type: functional, Mus musculus
assay_readout: Activity
Respond with the number and no other words.

Here are 10 molecules together with their reported answers.
molecule | recorded_number
Cc1oc(-c2cc3ccccc3s2)nc1COc1ccc(CCCC2OC(=O)NC2=O)cc1 (centres undefined) | 48
Cc1oc(-c2ccccc2)nc1COc1ccc(/C=C/C=C2/OC(=O)NC2=O)cc1 | 23
COc1cc(CCCC2OC(=O)NC2=O)ccc1OCc1nc(-c2ccccc2)oc1C (centres undefined) | 61
Cc1oc(-c2ccccc2)nc1CCOc1ccc(/C=C/C=C2\SC(=O)NC2=O)cc1 | 13
Cc1oc(-c2ccccc2)nc1CCCc1ccc(CCCC2OC(=O)NC2=O)cc1 (centres undefined) | 22
Cc1oc(-c2ccccc2)nc1COc1ccc(CCCCCC2SC(=O)NC2=O)cc1 (centres undefined) | 19
Cc1oc(-c2ccccc2)nc1COc1ccc(CCCCC2SC(=O)NC2=O)cc1 (centres undefined) | 22
Cc1oc(-c2ccccc2)nc1CCC(=O)c1ccc(CCCC2OC(=O)NC2=O)cc1 (centres undefined) | 32
Cc1oc(-c2ccccc2)nc1COc1ccc(CCCCC2OC(=O)NC2=O)cc1 (centres undefined) | 43
Cc1oc(-c2cc3ccccc3o2)nc1COc1ccc(CCCC2OC(=O)NC2=O)cc1 (centres undefined) | 47

*Q* I would be grateful if you could share the reported Activity for Cc1oc(-c2ccccc2)nc1COc1cccc(CCCC2OC(=O)NC2=O)c1 (centres undefined) .
*A* 32

*Q* Continue with Cc1oc(-c2ccccc2)nc1CCOc1ccc(CCCCC2OC(=O)NC2=O)cc1 (centres undefined)
*A* 27

*Q* Would you kindly repeat that for Cc1oc(-c2ccccc2)nc1CCOc1ccc(CCCC2OC(=O)NC2=O)cc1 (centres undefined) ?
*A* 49

*Q* Now consider COc1cc(CCCC2OC(=O)NC2=O)ccc1OCc1nc(-c2ccco2)oc1C (stereo in doubt; 64) .
*A* 58

---

Molecular target: RXR alpha/PPAR gamma (Homo sapiens, UniProt P19793+P37231)
Sequence (P37231 whole entry): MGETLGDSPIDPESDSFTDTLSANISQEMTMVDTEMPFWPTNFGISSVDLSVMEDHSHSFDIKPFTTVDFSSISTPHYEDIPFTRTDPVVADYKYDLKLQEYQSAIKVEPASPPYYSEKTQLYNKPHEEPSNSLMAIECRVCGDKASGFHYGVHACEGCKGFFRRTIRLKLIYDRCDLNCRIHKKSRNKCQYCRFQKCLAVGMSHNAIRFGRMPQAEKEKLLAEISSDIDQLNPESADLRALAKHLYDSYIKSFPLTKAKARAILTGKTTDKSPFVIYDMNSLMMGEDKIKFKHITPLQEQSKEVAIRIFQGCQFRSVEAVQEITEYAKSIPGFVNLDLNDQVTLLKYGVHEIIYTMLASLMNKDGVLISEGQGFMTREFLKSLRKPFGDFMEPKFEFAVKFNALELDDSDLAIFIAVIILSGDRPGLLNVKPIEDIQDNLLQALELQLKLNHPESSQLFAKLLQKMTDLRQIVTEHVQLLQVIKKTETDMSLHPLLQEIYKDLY
Sequence (P19793 whole entry): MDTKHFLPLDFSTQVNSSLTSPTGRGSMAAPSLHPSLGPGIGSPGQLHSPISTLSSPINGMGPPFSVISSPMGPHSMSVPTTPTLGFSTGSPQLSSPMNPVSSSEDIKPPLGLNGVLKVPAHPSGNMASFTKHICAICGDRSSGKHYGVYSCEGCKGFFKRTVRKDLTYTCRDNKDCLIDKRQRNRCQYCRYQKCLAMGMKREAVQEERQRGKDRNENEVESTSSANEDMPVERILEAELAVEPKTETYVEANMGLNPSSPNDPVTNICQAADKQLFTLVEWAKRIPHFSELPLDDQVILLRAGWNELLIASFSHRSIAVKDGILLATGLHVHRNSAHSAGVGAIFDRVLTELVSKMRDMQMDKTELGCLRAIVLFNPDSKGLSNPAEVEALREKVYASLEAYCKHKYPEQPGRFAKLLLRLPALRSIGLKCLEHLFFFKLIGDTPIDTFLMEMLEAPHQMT
Experiment: Transcriptional activation in COS cells expressing PPAR gamma and RXR alpha
Overview of reported EC50 across a group of compounds:
Kindly provide the numeric value in nM only, without the unit symbol.

Record excerpt, results attached:
compound | EC50 [nM]
Cc1sc(-c2ccccc2)nc1COc1ccc(CCCC2OC(=O)NC2=O)cc1 (stereo not given) | 813
Cc1oc(-c2ccccc2)nc1COc1ccc(CCCC2OC(=O)NC2=O)cn1 (stereo not given) | 16.5
COc1cc(CCCC2OC(=O)NC2=O)ccc1OCc1nc(-c2ccco2)oc1C (stereo in doubt; (+)-64) | 8.87

Field: next compound
*Q* Form: Entry = COc1cc(CCCC2OC(=O)NC2=O)ccc1OCc1nc(-c2ccco2)oc1C (single isomer, unassigned; (-)) | System = RXR alpha/PPAR gamma (Homo sapiens, UniProt P19793+P37231) | EC50 = ____
*A* 35.4
